# Tested on: Candida
# PROCEDURE_TEXT: Antifungal activity against Candida mycoderma ATCC10231 after 24 hrs by two fold serial dilution method
# Type: functional
# MEASUREMENT_CONDITIONS: ATCC10231, 24 h
Consider the cut-off 600 µM. If the recorded MIC is strictly smaller, the label is Criterion met; if not, the label is Criterion not met.

Decide: MIC of CCCCc1nc(Cl)c(/C=N/N2C(=O)c3cccc4c(N5CCCC5)ccc(c34)C2=O)[nH]1 strictly below 600 µM?
Criterion met

Decide: MIC of CCCCc1nc(Cl)c(/C=N/N2C(=O)c3cccc4c(N5CCCCC5)ccc(c34)C2=O)[nH]1 strictly below 600 µM?
Criterion met

Decide: MIC of CCCCc1nc(Cl)c(/C=N/N2C(=O)c3cccc4c(N5CCOCC5)ccc(c34)C2=O)n1Cc1ccccc1Cl strictly below 600 µM?
Criterion not met

Decide: MIC of CCCCCCCn1c(CCCC)nc(Cl)c1/C=N/N1C(=O)c2cccc3c(N4CCOCC4)ccc(c23)C1=O strictly below 600 µM?
Criterion met

Decide: MIC of CCCCc1nc(Cl)c(/C=N/N2C(=O)c3cccc4c(N5CCOCC5)ccc(c34)C2=O)n1Cc1ccc(Cl)c(Cl)c1 strictly below 600 µM?
Criterion met

Decide: MIC of CCCCc1nc(Cl)c(/C=N/N2C(=O)c3cccc4c(N5CCOCC5)ccc(c34)C2=O)n1Cc1ccc(C)cc1 strictly below 600 µM?
Criterion not met

Decide: MIC of CCCCc1nc(Cl)c(/C=N/N2C(=O)c3cccc4c(N5CCOCC5)ccc(c34)C2=O)n1Cc1ccc(Cl)cc1 strictly below 600 µM?
Criterion met

Decide: MIC of CCCCc1nc(Cl)c(/C=N/N2C(=O)c3cccc4c(N5CCOCC5)ccc(c34)C2=O)n1Cc1ccccc1F strictly below 600 µM?
Criterion met

====

# Tested on: Escherichia coli
# PROCEDURE_TEXT: Antibacterial activity against Escherichia coli JM109 after 24 hrs by two fold serial dilution method
# Assay type: functional
# MEASUREMENT_CONDITIONS: JM109, 24 h
Consider the cut-off 400 µM. If the recorded MIC is strictly smaller, the label is met; if not, the label is not met.

Decide: MIC of CCn1cc(C(=O)O)c(=O)c2cc(F)c(N3CCNCC3)cc21 strictly below 400 µM?
met

Decide: MIC of CCCCCn1c(CCCC)nc(Cl)c1/C=N/N1C(=O)c2cccc3c(N4CCOCC4)ccc(c23)C1=O strictly below 400 µM?
not met

Decide: MIC of CCCCc1nc(Cl)c(/C=N/N2C(=O)c3cccc4c(N5CCOCC5)ccc(c34)C2=O)n1Cc1ccccc1F strictly below 400 µM?
met

Decide: MIC of CCCCc1nc(Cl)c(/C=N/N2C(=O)c3cccc4c(N5CCOCC5)ccc(c34)C2=O)n1Cc1ccc(Cl)c(Cl)c1 strictly below 400 µM?
met

Decide: MIC of CCCCc1nc(Cl)c(/C=N/N2C(=O)c3cccc4c(N5CCCC5)ccc(c34)C2=O)[nH]1 strictly below 400 µM?
met

Decide: MIC of CCCCc1nc(Cl)c(/C=N/N2C(=O)c3cccc4c(Br)ccc(c34)C2=O)[nH]1 strictly below 400 µM?
not met

Decide: MIC of CCCCc1nc(Cl)c(/C=N/N2C(=O)c3cccc4c(N5CCOCC5)ccc(c34)C2=O)n1Cc1ccc(Cl)cc1Cl strictly below 400 µM?
met

Decide: MIC of CCCCc1nc(Cl)c(/C=N/N2C(=O)c3cccc4c(N5CCOCC5)ccc(c34)C2=O)n1Cc1ccc(OC)cc1 strictly below 400 µM?
not met

Decide: MIC of CCCCc1nc(Cl)c(/C=N/N2C(=O)c3cccc4c(N5CCOCC5)ccc(c34)C2=O)n1Cc1ccc(C)cc1 strictly below 400 µM?
met

Decide: MIC of CCCCc1nc(Cl)c(/C=N/N2C(=O)c3cccc4c(N5CCOCC5)ccc(c34)C2=O)n1Cc1cccc(Cl)c1 strictly below 400 µM?
not met

Decide: MIC of CCCCc1nc(Cl)c(/C=N/N2C(=O)c3cccc4c(N5CCOCC5)ccc(c34)C2=O)n1Cc1ccc(F)cc1 strictly below 400 µM?
not met

Decide: MIC of CCCCCCCn1c(CCCC)nc(Cl)c1/C=N/N1C(=O)c2cccc3c(N4CCOCC4)ccc(c23)C1=O strictly below 400 µM?
not met

Decide: MIC of CCCCc1nc(Cl)c(/C=N/N2C(=O)c3cccc4c(N5CCCCC5)ccc(c34)C2=O)[nH]1 strictly below 400 µM?
not met

Decide: MIC of CCCCc1nc(Cl)c(/C=N/N2C(=O)c3cccc4c(N5CCOCC5)ccc(c34)C2=O)n1Cc1ccccc1Cl strictly below 400 µM?
met

Decide: MIC of CCCCc1nc(Cl)c(/C=N/N2C(=O)c3cccc4c(N5CCOCC5)ccc(c34)C2=O)n1Cc1ccc(Cl)cc1 strictly below 400 µM?
not met

Decide: MIC of CCCCCCCCn1c(CCCC)nc(Cl)c1/C=N/N1C(=O)c2cccc3c(N4CCOCC4)ccc(c23)C1=O strictly below 400 µM?
met

Decide: MIC of CCCCCCCCCCn1c(CCCC)nc(Cl)c1/C=N/N1C(=O)c2cccc3c(N4CCOCC4)ccc(c23)C1=O strictly below 400 µM?
not met

====

Assignment: determine reported MIC for the given compounds.
# Test system: Saccharomyces cerevisiae
# PROCEDURE_TEXT: Antifungal activity against Beer yeast ATCC9763 after 24 hrs by two fold serial dilution method
# Type: functional
# MEASUREMENT_CONDITIONS: ATCC9763, 24 h

Form field: reported MIC of CCCCc1nc(Cl)c(/C=N/N2C(=O)c3cccc4c(N5CCOCC5)ccc(c34)C2=O)n1Cc1ccc(Cl)c(Cl)c1
180 µM

Form field: reported MIC of CCCCc1nc(Cl)c(/C=N/N2C(=O)c3cccc4c(N5CCCCC5)ccc(c34)C2=O)[nH]1
550 µM

Form field: reported MIC of CCCCCCCCCCn1c(CCCC)nc(Cl)c1/C=N/N1C(=O)c2cccc3c(N4CCOCC4)ccc(c23)C1=O
420 µM

Form field: reported MIC of CCCCc1nc(Cl)c(/C=N/N2C(=O)c3cccc4c(N5CCOCC5)ccc(c34)C2=O)n1Cc1ccc(Cl)cc1
220 µM

====

Assignment: determine reported MIC for the given molecules.
# System: Candida
# PROCEDURE_TEXT: Antifungal activity against Candida mycoderma ATCC10231 after 24 hrs by two fold serial dilution method
# Format: functional
# MEASUREMENT_CONDITIONS: ATCC10231, 24 h
Lab book: enter the figure in µM, no units written.

Form field: reported MIC of CCCCCCCCCCCCn1c(CCCC)nc(Cl)c1/C=N/N1C(=O)c2cccc3c(N4CCOCC4)ccc(c23)C1=O
810

Form field: reported MIC of OC(Cn1cncn1)(Cn1cncn1)c1ccc(F)cc1F [FLUCONAZOLE]
10

Form field: reported MIC of CCCCc1nc(Cl)c(/C=N/N2C(=O)c3cccc4c(N5CCOCC5)ccc(c34)C2=O)n1Cc1cccc(Cl)c1
430

Form field: reported MIC of CCCCc1nc(Cl)c(/C=N/N2C(=O)c3cccc4c(N5CCOCC5)ccc(c34)C2=O)[nH]1
140

Form field: reported MIC of CCCCCCCCCCn1c(CCCC)nc(Cl)c1/C=N/N1C(=O)c2cccc3c(N4CCOCC4)ccc(c23)C1=O
210

Form field: reported MIC of CCCCc1nc(Cl)c(/C=N/N2C(=O)c3cccc4c(N5CCOCC5)ccc(c34)C2=O)n1Cc1cccc(F)c1
440

Form field: reported MIC of CCCCCCCCn1c(CCCC)nc(Cl)c1/C=N/N1C(=O)c2cccc3c(N4CCOCC4)ccc(c23)C1=O
440

Form field: reported MIC of CCCCCn1c(CCCC)nc(Cl)c1/C=N/N1C(=O)c2cccc3c(N4CCOCC4)ccc(c23)C1=O
480

====

# System: Staphylococcus aureus
# PROCEDURE_TEXT: Antibacterial activity against Staphylococcus aureus ATCC25923 after 24 hrs by two fold serial dilution method
# Format: functional
# MEASUREMENT_CONDITIONS: ATCC25923, 24 h
OUTCOME_MEASURE: MIC (µM)
Lab book: enter the figure in µM, no units written.

For the record CCCCCCCCCCCCn1c(CCCC)nc(Cl)c1/C=N/N1C(=O)c2cccc3c(N4CCOCC4)ccc(c23)C1=O , what value of MIC is listed for Staphylococcus aureus?
400

For the record CCCCc1nc(Cl)c(/C=N/N2C(=O)c3cccc4c(N5CCOCC5)ccc(c34)C2=O)n1Cc1cccc(F)c1 , what value of MIC is listed for Staphylococcus aureus?
220

For the record CCCCc1nc(Cl)c(/C=N/N2C(=O)c3cccc4c(N5CCOCC5)ccc(c34)C2=O)n1Cc1ccc(Cl)cc1Cl , what value of MIC is listed for Staphylococcus aureus?
180

For the record CCCCCn1c(CCCC)nc(Cl)c1/C=N/N1C(=O)c2cccc3c(N4CCOCC4)ccc(c23)C1=O , what value of MIC is listed for Staphylococcus aureus?
240

For the record CCCCc1nc(Cl)c(/C=N/N2C(=O)c3cccc4c(N5CCCCC5)ccc(c34)C2=O)[nH]1 , what value of MIC is listed for Staphylococcus aureus?
280
